# target_or_test_system: T1, human FcRn (Biorbyt, cat. no. orb84388) (human, UniProt P55899 24-297; P61769 21-119, limits assumed)
# T1 construct: Bought soluble protein; not biotinylated on Biacore chips and ELISA coat; also called hFcRn
# T1 sequence (P55899 24-297 limits assumed, chain 1 of 2): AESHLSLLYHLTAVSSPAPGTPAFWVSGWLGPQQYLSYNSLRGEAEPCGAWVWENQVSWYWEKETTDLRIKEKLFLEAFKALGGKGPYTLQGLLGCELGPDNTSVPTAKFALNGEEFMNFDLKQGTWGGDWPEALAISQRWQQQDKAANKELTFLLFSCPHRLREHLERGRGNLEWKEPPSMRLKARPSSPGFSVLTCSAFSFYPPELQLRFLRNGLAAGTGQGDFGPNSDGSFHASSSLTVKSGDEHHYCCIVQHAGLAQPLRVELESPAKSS
# T1 sequence (P61769 21-119 limits assumed, chain 2 of 2): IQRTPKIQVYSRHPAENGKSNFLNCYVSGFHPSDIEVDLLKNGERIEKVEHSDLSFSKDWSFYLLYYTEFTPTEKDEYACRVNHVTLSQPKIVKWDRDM
# assay_details: SPR Biacore, hFcRn immobilised; sample before the stability test (0)
measure: Kd (nM)
Answers are plain numbers, in nM.

Exercise: Given the binder His6-tagged Z17348 (designed binder) MGSSHHHHHHLQAEAKYAKEQDAAAHEIRWLPNLTFDQRVAFIHKLARQPEQSSELLSEAKKLSESQAPK , write its reported Kd.
Solution: 5.5

Data provenance is patent US20190284241A1.
